assay summary: Oral bioavailability in rat
Type: ADME, organism-based
condition label: in vivo
experimental readout: bioavailability (%)
Entry rule: numbers only, all in %.

INSERT INTO measurements (compound_structure, experimental_readout, observed_value) VALUES
  ('CO[C@H]1C[C@@H](n2c(=O)n(C)c3cnc4ccc(-c5ccc(OCCCN(C)C)nc5)cc4c32)C1', 'bioavailability', 50);

Answer with the recorded bioavailability of CN(C)CCCOc1ccc(-c2ccc3ncc4c(c3c2)n(C2CCOCC2)c(=O)n4C)cn1 only.
57

###

assay summary: AUC (0 to 12 hrs) in patient with solid tumor at 60 mg, po bid by LC-MS/MS analysis
Type: ADME, organism-based
Design: dose 60 mg, time < 12 hr, route oral
condition label: human, in vivo
experimental readout: AUC at 12 h

Return AUC at 12 h for the following compound: CN(C)CCCOc1ccc(-c2ccc3ncc4c(c3c2)n(C2CCOCC2)c(=O)n4C)cn1
206 ng·h/mL
